Recorded values, source the supplement of paper PMC10307832.

system: LXF-289; test: relative viability (nuclei count vs DMSO), 5 days (fraction); higher = more cells survive; conditions: first compound 0.01581 µM
Let's look at some compounds and their measured relative viability.
# respond with the number and nothing more

* COc1cc2nccc(Oc3ccc(NC(=O)Nc4cc(C)on4)c(Cl)c3)c2cc1OC [Tivozanib] + CC(=O)Nc1cccc(-n2c(=O)n(C3CC3)c(=O)c3c(Nc4ccc(I)cc4F)n(C)c(=O)c(C)c32)c1 [Trametinib] (partner 0.02 µM) | 0.674

Then there is this compound:
Request: Item Nc1ccn([C@@H]2O[C@H](CO)[C@@H](O)[C@@H]2O)c(=O)n1 [Cytarabine] + COc1cc2c(Oc3ccc(NC(=O)C4(C(=O)Nc5ccc(F)cc5)CC4)cc3F)ccnc2cc1OCCCN1CCOCC1 [Foretinib] (partner 0.25 µM) with LXF-289 - relative viability?
Result: 0.961
